Tested on: L1210 leukemia ip in BDF1 mice, survival T/C
Experiment: NCI In Vivo Anticancer Drug Screen. Data for tumor model L1210 Leukemia (intraperitoneal) in B6D2F1 (BDF1) mice
Conditions: endpoint: mean survival time; dose: 25.0 mg/kg/injection; schedule: Q01DX001 (ip); vehicle: saline; higher = longer survival
Toxic doses and inconclusive results are not listed.
value_kind: T/C

>>> print(df.to_string())
                                   compound            result
0        O=C1C(=O)c2ccccc2C(O)=C1CC=C(Cl)Cl  104 % of control
1  O=C(O)C1C(C(=O)O)C23CC2(C(=O)O)C2(C(=O)O)CCC3=C3CCCC312 (centres undefined)   98 % of control
2       CC(=O)NCCCc1c(C)nc(NC(C)=O)[nH]c1=O   94 % of control
3  C=C1C(=O)N(C)C(C(=O)OC)CC1C(CC)C(=O)OC (centres undefined)  104 % of control
